# Lookup of reported pIC50 keyed by entry
Target: recombinant human NF-kappaB-inducing kinase (NIK/MAP3K14) (Homo sapiens (Human), UniProt Q99558)
Sequence (Q99558 whole entry): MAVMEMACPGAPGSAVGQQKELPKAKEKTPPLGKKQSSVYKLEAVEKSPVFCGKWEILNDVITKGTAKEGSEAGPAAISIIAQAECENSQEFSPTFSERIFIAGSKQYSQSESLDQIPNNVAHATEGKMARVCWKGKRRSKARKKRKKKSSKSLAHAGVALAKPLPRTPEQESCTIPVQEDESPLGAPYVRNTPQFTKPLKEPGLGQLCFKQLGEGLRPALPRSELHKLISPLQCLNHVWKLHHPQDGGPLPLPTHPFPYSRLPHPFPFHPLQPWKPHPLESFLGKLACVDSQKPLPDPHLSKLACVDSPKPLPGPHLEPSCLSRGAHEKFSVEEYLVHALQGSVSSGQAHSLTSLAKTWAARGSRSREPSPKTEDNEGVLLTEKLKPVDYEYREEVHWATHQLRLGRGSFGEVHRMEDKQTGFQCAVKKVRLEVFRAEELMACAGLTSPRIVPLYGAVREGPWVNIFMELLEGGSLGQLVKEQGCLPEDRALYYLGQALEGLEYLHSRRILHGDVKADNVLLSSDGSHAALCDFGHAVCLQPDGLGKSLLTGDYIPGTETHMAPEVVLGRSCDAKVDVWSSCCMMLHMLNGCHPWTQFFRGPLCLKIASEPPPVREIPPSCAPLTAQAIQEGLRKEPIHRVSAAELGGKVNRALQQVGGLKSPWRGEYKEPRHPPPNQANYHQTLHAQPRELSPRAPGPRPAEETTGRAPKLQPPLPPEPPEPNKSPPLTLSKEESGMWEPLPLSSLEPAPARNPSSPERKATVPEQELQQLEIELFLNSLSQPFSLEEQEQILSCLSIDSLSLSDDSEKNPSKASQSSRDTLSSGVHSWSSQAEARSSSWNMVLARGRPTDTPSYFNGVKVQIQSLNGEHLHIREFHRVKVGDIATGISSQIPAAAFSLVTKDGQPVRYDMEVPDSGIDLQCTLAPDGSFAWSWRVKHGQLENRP
Assay: Inhibition of auto-phosphorylation of recombinant human NIK/MAP3K14 (AlphaScreen)
Conditions: NIK auto-phosphorylation, 5 μM ATP, 1 nM NIK, 2 h at 25° C.; average of values
Quick note: pIC50 means taking -log10 of the concentration in moles per liter.

The compound listed as `CN1CC[C@@](O)(C#Cc2cccc(-c3ccc4ncnc(C(F)(F)F)c4n3)c2)C1=O` has a reported pIC50 of 6.77

The compound listed as `Cc1nc(N)c2nc(-c3cccc(C#C[C@@](C)(O)c4cnccn4)c3)ccc2n1` has a reported pIC50 of 7.54

The compound listed as `Cc1ncc(Br)c2ccc(-c3cccc(C#C[C@]4(O)CCN(C)C4=O)c3)nc12` has a reported pIC50 of 8.14

The compound listed as `CNc1ncnc2ccc(-c3cccc(C#C[C@]4(O)CCN(C)C4=O)c3)nc12` has a reported pIC50 of 8.11

The compound listed as `CN1CC[C@@](O)(C#Cc2cccc(-c3ccc4ncnc(N5CC(F)C5)c4n3)c2)C1=O` has a reported pIC50 of 8.82

Next:
The compound listed as `Cc1ccc(C#C[C@@](C)(O)c2nccs2)cc1-c1ncc2ccnc(N)c2n1` has a reported pIC50 of 9.00

The compound listed as CN1CC[C@@](O)(C#Cc2cccc(-c3cc(C4CCN4)c4ncnc(N)c4n3)c2)C1=O (some centres unmarked) has a reported pIC50 of 8.51

---

Target: recombinant human NF-kappaB-inducing kinase (NIK/MAP3K14) (Homo sapiens (Human))
Assay: Inhibition of auto-phosphorylation of recombinant human NIK/MAP3K14 (AlphaScreen)
Conditions: NIK auto-phosphorylation, 5 μM ATP, 1 nM NIK, 2 h at 25° C.; average of values
RECORDED METRIC: log10(IC50) (log10 of the value in nM)
Parameter value (number): base-10 log of IC50 in nM.

The compound listed as `CN1CC[C@@](O)(C#Cc2cccc(-c3cc(N4CC(F)(F)C4)c4ncnc(N)c4n3)c2)C1=O` has a reported log10(IC50) of 0.08

The compound listed as `CN1CC[C@@](O)(C#Cc2cccc(-c3ccc4ncnc(NCC(F)F)c4n3)c2)C1=O` has a reported log10(IC50) of 1.75

The compound listed as `Cc1ccc(C#C[C@]2(O)CCN(C)C2=O)cc1-c1ncc2ncnc(N)c2n1` has a reported log10(IC50) of 0.00

The compound listed as `[2H]c1nc(N)c2nc(-c3cccc(C#C[C@]4(O)CCN(C)C4=O)c3)cc(CC)c2n1` has a reported log10(IC50) of 0.83

The compound listed as `Cc1nc(N)c2nc(-c3cccc(C#C[C@]4(O)CCN(C)C4=O)c3)cc(C)c2n1` has a reported log10(IC50) of 0.23

Next:
The compound listed as `Cc1c(C#C[C@]2(O)CCN(C)C2=O)cccc1-c1nc2c(N)ncnc2s1` has a reported log10(IC50) of 2.79

The compound listed as `Cc1nc(N)c2nc(-c3cc(C#C[C@]4(O)CCN(C)C4=O)ccc3C)ccc2n1` has a reported log10(IC50) of 0.67

---

# Lookup of reported IC50 keyed by entry
Target: recombinant human NF-kappaB-inducing kinase (NIK/MAP3K14) (Homo sapiens (Human))
Assay: Inhibition of auto-phosphorylation of recombinant human NIK/MAP3K14 (AlphaScreen)
Conditions: NIK auto-phosphorylation, 5 μM ATP, 1 nM NIK, 2 h at 25° C.; average of values
Response body: numeric value in nM, unit text excluded.

The compound listed as `Cc1nc(N)c2nc(-c3cccc(C#C[C@]4(O)CCCN(C)C4=O)c3)ccc2n1` has a reported IC50 of 3.8

The compound listed as `CN1CC[C@@](O)(C#Cc2cccc(-c3ccc4ncnc(N5CCC5)c4c3)c2)C1=O` has a reported IC50 of 14

The compound listed as `Cc1cc2cnc(-c3cccc(C#C[C@]4(O)CCc5cccnc54)c3)nc2c(N)n1` has a reported IC50 of 1.4

The compound listed as `CN1CC[C@@](O)(C#Cc2cccc(-c3ccc4ncnc(N5CCCC5)c4n3)c2)C1=O` has a reported IC50 of 4.2

Please look at the following compound next.
The compound listed as `CN1CC[C@@](O)(C#Cc2cccc(-c3ccc4cnnc(N)c4c3)c2)C1=O` has a reported IC50 of 29
